protocol.summary: Anticancer activity against human PANC1 cells assessed as inhibition of cell growth after 72 hrs by MTT assay
Type: functional, cell-based
condition.parameters: PANC-1, 72 h
result.type: pIC50
Convention used: pIC50 is expressed as -log10 of the molar concentration.

// returns reported pIC50 for input N=C(N)SCc1cc2c(cc1Br)OCO2
4.46

Next record, please: N=C(N)[Se]Cc1ccc2c(c1)C(=O)c1ccccc1C2=O
4.50

Next record, please: N=C(N)SCc1ccc2c(c1)C(=O)c1ccccc1C2=O
5.17

Next record, please: N=C(N)[Se]Cc1c2ccccc2nc2ccccc12
5.01

----------
Record form. Attribute: pIC50. Fill in for each entry.
protocol.summary: Anticancer activity against human DU145 cells assessed as inhibition of cell growth after 24 hrs by MTT assay
Format: functional, cell-based
condition.parameters: DU-145, 24 h
pIC50: −log10 of the molar value.

// returns reported pIC50 for input N=C(N)SCN1C(=O)c2ccccc2C1=O
< 4.30

Next record, please: N=C(N)SCc1c2ccccc2nc2ccccc12
< 4.30

Next record, please: COc1cc2oc(=O)cc(CSC(=N)N)c2cc1OC
< 4.30

Next record, please: Cc1noc(C)c1C[Se]C(=N)N
< 4.30

Next record, please: N=C(N)SCc1ccc2c(c1)C(=O)c1ccccc1C2=O
4.53

Next record, please: N=C(N)SCc1ccc(-n2cccc2)cc1
< 4.30

Next record, please: COc1cc2oc(=O)cc(C[Se]C(=N)N)c2cc1OC
4.94

Next record, please: N=C(N)[Se]Cc1ccc(-n2cccc2)cc1
< 4.30

Next record, please: N=C(N)[Se]Cc1cc2c(cc1Br)OCO2
< 4.30

Next record, please: N=C(N)[Se]Cc1ccc2ccccc2n1
4.71

Next record, please: Br.Br.N=C(N)[Se]Cc1nc2ccccc2nc1C[Se]C(=N)N
5.64

Next record, please: N=C(N)SCc1cc2c(cc1Br)OCO2
< 4.30

Next record, please: N=C(N)SCc1nc2ccccc2nc1CSC(=N)N
< 4.30
